Quick reference: EC50 of the listed items.
biological target: human DP2 (Homo sapiens, UniProt Q9Y5Y4); construct: expressed in transfected cells; membranes prepared; assay: DP-2 binding inhibition assay (3H-PGD2, membranes of DP2-expressing K562 cells); details: 4% HSA, read-out: EC50 (nM) 4% HSA
The reply should be a number in nM, with the unit left off.

These recorded examples may help you get a feel for the data.
                                   molecule                               system_name  quantity_unit  recorded_value
0  COc1nc(C2CC2)ccc1CCNC(=O)c1ccc(Oc2cc3c(cc2Cl)C(C(=O)O)CCO3)cc1 (stereo not drawn)  human DP2 (Homo sapiens, UniProt Q9Y5Y4)             nM            42.1
1  O=C(Nc1cccc(-c2ccc(F)c(F)c2)n1)c1ccc(Oc2cc3c(cc2Cl)C(C(=O)O)CCO3)cc1 (stereo not drawn)  human DP2 (Homo sapiens, UniProt Q9Y5Y4)             nM            97.9
2  CC(C)(C)c1csc(CCNC(=O)c2ccc(Oc3cc4c(cc3Cl)C(C(=O)O)CCO4)cc2)n1 (stereo not drawn)  human DP2 (Homo sapiens, UniProt Q9Y5Y4)             nM            1070
3  Cc1cccc2ccc(NC(=O)c3ccc(Oc4cc5c(cc4Cl)C(C(=O)O)CCO5)cc3)nc12 (stereo not drawn)  human DP2 (Homo sapiens, UniProt Q9Y5Y4)             nM             764
4  O=C(Nc1ccn(-c2cccc(Cl)c2F)n1)c1ccc(Oc2cc3c(cc2Cl)C(C(=O)O)CCO3)cc1 (stereo not drawn)  human DP2 (Homo sapiens, UniProt Q9Y5Y4)             nM              76
5  O=C(Nc1ccc(-c2ccc(C(F)(F)F)cc2F)nn1)c1ccc(Oc2cc3c(cc2Cl)C(C(=O)O)CCO3)cc1 (stereo not drawn)  human DP2 (Homo sapiens, UniProt Q9Y5Y4)             nM             437
6  Cc1ccc(-c2cccc(NC(=O)c3ccc(Oc4cc5c(cc4Cl)C(C(=O)O)CCO5)cc3)n2)cc1 (stereo not drawn)  human DP2 (Homo sapiens, UniProt Q9Y5Y4)             nM            39.4
7  O=C(Nc1ccc(-c2cccc(Cl)c2)cn1)c1ccc(Oc2cc3c(cc2Cl)C(C(=O)O)CCO3)cc1 (stereo not drawn)  human DP2 (Homo sapiens, UniProt Q9Y5Y4)             nM            82.8

Next item in the queue.
Data request: Supply measured EC50 of Cc1cc(NC(=O)c2ccc(Oc3cc4c(cc3Cl)C(C(=O)O)CCO4)cc2)nc2ccccc12 (stereo not drawn) in your reply.
Data returned: 265

* * *

molecular target: human DP2 (Homo sapiens); construct: expressed in transfected cells; membranes prepared; test: DP-2 binding inhibition assay (3H-PGD2, membranes of DP2-expressing K562 cells); conditions: 4% HSA, read-out: EC50 (nM) 4% HSA
Quick reference: EC50 of the listed items.
The reply should be a number in nM, with the unit left off.

These recorded examples may help you get a feel for the data.
In [3]: df
Out[3]:
                                   compound  recorded_value
0  N#Cc1cc2c(cc1Oc1ccc(C(=O)Nc3cccc(-c4cccc(C(F)(F)F)c4)n3)cc1)OCCC2C(=O)O (stereo not shown) [Example 41]            50.8
1  O=C(Nc1cc(-c2cccc(Cl)c2)ccn1)c1ccc(Oc2cc3c(cc2Cl)C(C(=O)O)CCO3)cc1 (stereo not shown) [Example 121]            1890
2  CC(C)(C)c1cc(NC(=O)c2ccc(Oc3cc4c(cc3Cl)C(C(=O)O)CCO4)cc2)on1 (stereo not shown) [Example 162]            1600
3  Cc1cc(NC(=O)c2ccc(Oc3cc4c(cc3Cl)C(C(=O)O)CCO4)cc2)nc(-c2ccc(C(F)(F)F)cc2)n1 (stereo not shown) [Example 102]            21.2
4  Cn1nc(C(C)(C)C)cc1NC(=O)c1ccc(Oc2cc3c(cc2Cl)C(C(=O)O)CCO3)cc1 (stereo not shown) [Example 178]             951

Data request: Supply measured EC50 of CC(C)(C)c1cccc(NC(=O)c2ccc(Oc3cc4c(cc3Cl)C(C(=O)O)CCO4)cc2)n1 (stereo not shown) [Example 114] in your reply.
Data returned: 276

Data request: Supply measured EC50 of O=C(Nc1ccc(-c2ccccc2Cl)nc1)c1ccc(Oc2cc3c(cc2Cl)C(C(=O)O)CCO3)cc1 (stereo not shown) [Example 125] in your reply.
Data returned: 627

* * *

Molecular target: human DP2 (Homo sapiens, UniProt Q9Y5Y4)
Construct: expressed in transfected cells; membranes prepared
Sequence (Q9Y5Y4 1-395): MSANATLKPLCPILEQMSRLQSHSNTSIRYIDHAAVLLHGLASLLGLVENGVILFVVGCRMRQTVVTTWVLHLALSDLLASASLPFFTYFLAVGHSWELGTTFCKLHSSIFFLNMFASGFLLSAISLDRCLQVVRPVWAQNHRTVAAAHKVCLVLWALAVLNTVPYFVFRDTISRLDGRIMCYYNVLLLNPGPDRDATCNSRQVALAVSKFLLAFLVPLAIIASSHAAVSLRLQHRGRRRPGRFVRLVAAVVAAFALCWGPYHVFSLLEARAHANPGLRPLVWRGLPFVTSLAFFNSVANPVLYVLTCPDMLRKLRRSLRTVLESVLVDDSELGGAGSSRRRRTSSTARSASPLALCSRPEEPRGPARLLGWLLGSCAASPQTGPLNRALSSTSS
Test: DP-2 binding inhibition assay (3H-PGD2, membranes of DP2-expressing K562 cells)
Details: 4% HSA, read-out: EC50 (nM) 4% HSA
Quantity: EC50 (nM)
The reply should be a number in nM, with the unit left off.

These recorded examples may help you get a feel for the data.
Molecule	Quantity Unit	Recorded Value
O=C(Nc1cnc(-c2cccc(Cl)c2)nc1)c1ccc(Oc2cc3c(cc2Cl)C(C(=O)O)CCO3)cc1 (stereo not shown) [Example 135]	nM	313
COc1ncc(CCNC(=O)c2ccc(Oc3cc4c(cc3Cl)C(C(=O)O)CCO4)cc2)c(OC)n1 (stereo not shown) [Example 220]	nM	379
O=C(Nc1ccnc(-c2ccc(Cl)cc2)c1)c1ccc(Oc2cc3c(cc2Cl)C(C(=O)O)CCO3)cc1 (stereo not shown) [Example 128]	nM	596
Cc1ccc(-c2csc(NC(=O)c3ccc(Oc4cc5c(cc4C#N)C(C(=O)O)CCO5)cc3)n2)cc1 (stereo not shown) [Example 205]	nM	96.2
O=C(Nc1nccc(-c2cccc(C(F)(F)F)c2)n1)c1ccc(Oc2cc3c(cc2Cl)C(C(=O)O)CCO3)cc1 (stereo not shown) [Example 131]	nM	128
O=C(Nc1ccc2cc(Cl)ccc2n1)c1ccc(Oc2cc3c(cc2Cl)[C@@H](C(=O)O)CCO3)cc1 (single isomer, unassigned; enantiomer 2) [Example 37]	nM	4000

Data request: Supply measured EC50 of O=C(Nc1ccc(-c2ccc(C(F)(F)F)c(Cl)c2)nn1)c1ccc(Oc2cc3c(cc2Cl)C(C(=O)O)CCO3)cc1 (stereo not shown) [Example 60] in your reply.
Data returned: 63

* * *

molecular target: human DP2 (Homo sapiens, UniProt Q9Y5Y4); construct: expressed in transfected cells; membranes prepared; assay: DP-2 binding inhibition assay (3H-PGD2, membranes of DP2-expressing K562 cells); conditions: 1% HSA, read-out: EC50 (nM) 1% HSA
Quantity: EC50
Please don't drop the unit; write it after the number.

Data request: Supply measured EC50 of N#Cc1cc2c(cc1Oc1ccc(C(=O)Nc3ccc4cc(Cl)ccc4n3)cc1)OCCC2C(=O)O (stereo not shown) [Example 5] in your reply.
Data returned: 137 nM

Data request: Supply measured EC50 of N#Cc1cc2c(cc1Oc1ccc(C(=O)Nc3ccc4ccccc4n3)cc1)OCCC2C(=O)O (stereo not shown) [Example 3] in your reply.
Data returned: 482 nM

Data request: Supply measured EC50 of O=C(Nc1ccc(C(F)(F)F)nc1)c1ccc(Oc2cc3c(cc2Cl)C(C(=O)O)CCO3)cc1 (stereo not shown) [Example 29] in your reply.
Data returned: 661 nM

Data request: Supply measured EC50 of N#Cc1cc2c(cc1Oc1ccc(C(=O)Nc3ccc4nc(C(F)(F)F)[nH]c4c3)cc1)OCCC2C(=O)O (stereo not shown) [Example 191] in your reply.
Data returned: 137 nM

* * *

Target: human DP2 (Homo sapiens)
Construct: expressed in transfected cells; membranes prepared
Sequence (Q9Y5Y4 1-395): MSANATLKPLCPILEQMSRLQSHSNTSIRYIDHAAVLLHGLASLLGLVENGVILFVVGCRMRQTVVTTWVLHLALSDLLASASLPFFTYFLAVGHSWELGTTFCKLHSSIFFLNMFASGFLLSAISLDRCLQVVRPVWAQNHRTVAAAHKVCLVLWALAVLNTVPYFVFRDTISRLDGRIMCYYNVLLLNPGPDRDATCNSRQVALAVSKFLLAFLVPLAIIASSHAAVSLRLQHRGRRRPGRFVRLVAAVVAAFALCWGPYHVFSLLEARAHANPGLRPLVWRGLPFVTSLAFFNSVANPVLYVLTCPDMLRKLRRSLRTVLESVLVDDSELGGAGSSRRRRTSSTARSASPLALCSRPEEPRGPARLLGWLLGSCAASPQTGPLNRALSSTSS
Assay: DP-2 binding inhibition assay (3H-PGD2, membranes of DP2-expressing K562 cells)
Conditions: 4% HSA, read-out: EC50 (nM) 4% HSA
Quick reference: log10 of EC50 of the listed items.
Scale type: logarithmic (base 10). Underlying EC50 unit: nM.

>>> print(df.to_string())
                                   compound       quantity  recorded_value
0  N#Cc1cc2c(cc1Oc1ccc(C(=O)Nc3cccc(-c4ccc5c(c4)CCO5)n3)cc1)OCCC2C(=O)O (stereo not shown) [Example 43]  log10 of EC50            2.46
1  O=C(Nc1ccn(-c2cccc(Cl)c2)n1)c1ccc(Oc2cc3c(cc2Cl)C(C(=O)O)CCO3)cc1 (stereo not shown) [Example 172]  log10 of EC50            1.74
2  O=C(Nc1cncc(-c2cccc(Cl)c2)c1)c1ccc(Oc2cc3c(cc2Cl)C(C(=O)O)CCO3)cc1 (stereo not shown) [Example 127]  log10 of EC50            2.84

Data request: Supply measured log10 of EC50 of O=C(Nc1nc2ccc(C(F)(F)F)cc2s1)c1ccc(Oc2cc3c(cc2Cl)C(C(=O)O)CCO3)cc1 (stereo not shown) [Example 183] in your reply.
Data returned: 1.66

Data request: Supply measured log10 of EC50 of CN(C)c1nc(C2CC2)ccc1CCNC(=O)c1ccc(Oc2cc3c(cc2Cl)C(C(=O)O)CCO3)cc1 (stereo not shown) [Example 187] in your reply.
Data returned: 1.66

Data request: Supply measured log10 of EC50 of O=C(Nc1nccc(-c2ccc(Cl)cc2)n1)c1ccc(Oc2cc3c(cc2Cl)C(C(=O)O)CCO3)cc1 (stereo not shown) [Example 132] in your reply.
Data returned: 2.11

Data request: Supply measured log10 of EC50 of N#Cc1cc2c(cc1Oc1ccc(C(=O)Nc3cccc(-c4ccc(C(F)(F)F)cc4)n3)cc1)OCCC2C(=O)O (stereo not shown) [Example 42] in your reply.
Data returned: 1.56

src = patent US8785445B2
